The reported measurements were obtained from ChEMBL document CHEMBL4196087.

- Tested on: HOP-62
- method.summary: Growth inhibition of human HOP62 cells at 10^-5 M incubated for 48 hrs by sulforhodamine B assay relative to control
- Assay type: functional
- assay.context: HOP-62, 48 h, read-out: GI
# inhibition of growth at 10 µM listing for each entry below
parameter.measured: inhibition of growth at 10 µM

[[record]]
smiles_repr = "COc1ccc(/C=N/NC(=O)CN2CCN(c3cc4c(cc3F)c(=O)c(C(=O)O)cn4C3CC3)CC2)cc1"
result = "< 20%"

[[record]]
smiles_repr = "O=C(CSc1nnc(CN2CCN(c3cc4c(cc3F)c(=O)c(C(=O)O)cn4C3CC3)CC2)o1)c1ccc(Cl)cc1"
result = "23.5%"

[[record]]
smiles_repr = "O=C(O)c1cn(C2CC2)c2cc(N3CCN(Cc4nnc(S)o4)CC3)c(F)cc2c1=O"
result = "< 20%"

[[record]]
smiles_repr = "O=C(CN1CCN(c2cc3c(cc2F)c(=O)c(C(=O)O)cn3C2CC2)CC1)N/N=C/c1c[nH]c2ccccc12"
result = "< 20%"

[[record]]
smiles_repr = "O=C(CSc1nnc(CN2CCN(c3cc4c(cc3F)c(=O)c(C(=O)O)cn4C3CC3)CC2)o1)c1ccccc1"
result = "< 20%"

[[record]]
smiles_repr = "O=C(CN1CCN(c2cc3c(cc2F)c(=O)c(C(=O)O)cn3C2CC2)CC1)N/N=C/c1ccccc1C(F)(F)F"
result = "< 20%"


----------
Measured inhibition of growth at 10 µM of individual entries
- Test system: CCRF-CEM
- method.summary: Growth inhibition of human CCRF-CEM cells at 10^-5 M incubated for 48 hrs by sulforhodamine B assay relative to control
- Assay type: functional
- assay.context: read-out: GI
parameter.measured: inhibition of growth at 10 µM

[[record]]
smiles_repr = "O=C(CN1CCN(c2cc3c(cc2F)c(=O)c(C(=O)O)cn3C2CC2)CC1)N/N=C/c1cccs1"
result = "< 20%"

[[record]]
smiles_repr = "O=C(CN1CCN(c2cc3c(cc2F)c(=O)c(C(=O)O)cn3C2CC2)CC1)N/N=C/c1cc2ccccc2[nH]1"
result = "< 20%"

[[record]]
smiles_repr = "O=C(CN1CCN(c2cc3c(cc2F)c(=O)c(C(=O)O)cn3C2CC2)CC1)N/N=C/c1c[nH]c2ccccc12"
result = "54.4%"

[[record]]
smiles_repr = "O=C(CN1CCN(c2cc3c(cc2F)c(=O)c(C(=O)O)cn3C2CC2)CC1)N/N=C/c1ccccc1C(F)(F)F"
result = "< 20%"

[[record]]
smiles_repr = "NNC(=O)CN1CCN(c2cc3c(cc2F)c(=O)c(C(=O)O)cn3C2CC2)CC1"
result = "< 20%"

[[record]]
smiles_repr = "O=C(CN1CCN(c2cc3c(cc2F)c(=O)c(C(=O)O)cn3C2CC2)CC1)N/N=C/c1ccc(Cl)cc1"
result = "< 20%"

[[record]]
smiles_repr = "COc1ccc(/C=N/NC(=O)CN2CCN(c3cc4c(cc3F)c(=O)c(C(=O)O)cn4C3CC3)CC2)cc1"
result = "< 20%"


----------
- Tested on: LOX IMVI
- method.summary: Growth inhibition of human LOXIMVI cells at 10^-5 M incubated for 48 hrs by sulforhodamine B assay relative to control
- Assay type: functional
- assay.context: read-out: GI
parameter.measured: inhibition of growth at 10 µM

[[record]]
smiles_repr = "O=C(CN1CCN(c2cc3c(cc2F)c(=O)c(C(=O)O)cn3C2CC2)CC1)N/N=C/c1c[nH]c2ccccc12"
result = "< 20%"

[[record]]
smiles_repr = "NNC(=O)CN1CCN(c2cc3c(cc2F)c(=O)c(C(=O)O)cn3C2CC2)CC1"
result = "< 20%"

[[record]]
smiles_repr = "O=C(CSc1nnc(CN2CCN(c3cc4c(cc3F)c(=O)c(C(=O)O)cn4C3CC3)CC2)o1)c1ccc(Cl)cc1"
result = "< 20%"

[[record]]
smiles_repr = "COc1ccc(/C=N/NC(=O)CN2CCN(c3cc4c(cc3F)c(=O)c(C(=O)O)cn4C3CC3)CC2)cc1"
result = "23.2%"

[[record]]
smiles_repr = "O=C(CN1CCN(c2cc3c(cc2F)c(=O)c(C(=O)O)cn3C2CC2)CC1)N/N=C/c1cc2ccccc2[nH]1"
result = "36.6%"

[[record]]
smiles_repr = "O=C(CN1CCN(c2cc3c(cc2F)c(=O)c(C(=O)O)cn3C2CC2)CC1)N/N=C/c1ccc(Cl)cc1"
result = "< 20%"

[[record]]
smiles_repr = "O=C(O)c1cn(C2CC2)c2cc(N3CCN(Cc4nnc(S)o4)CC3)c(F)cc2c1=O"
result = "< 20%"


----------
Listed here are compounds together with their documented LC50.
- System: UO-31
- method.summary: Antiproliferative activity against human UO31 cells after 48 hrs by SRB assay
- Type: functional
- assay.context: UO-31, 48 h
parameter.measured: LC50 (µM)

[[record]]
smiles_repr = "O=C(CN1CCN(c2cc3c(cc2F)c(=O)c(C(=O)O)cn3C2CC2)CC1)N/N=C/c1cc2ccccc2[nH]1"
parameter_measured = "LC50"
number = 15.1

[[record]]
smiles_repr = "O=C(CN1CCN(c2cc3c(cc2F)c(=O)c(C(=O)O)cn3C2CC2)CC1)N/N=C/c1ccc(O)cc1O"
parameter_measured = "LC50"
number = 13

[[record]]
smiles_repr = "O=C(CN1CCN(c2cc3c(cc2F)c(=O)c(C(=O)O)cn3C2CC2)CC1)N/N=C/c1ccccc1O"
parameter_measured = "LC50"
number = 15.2

[[record]]
smiles_repr = "O=C(CN1CCN(c2cc3c(cc2F)c(=O)c(C(=O)O)cn3C2CC2)CC1)N/N=C/c1ccccc1C(F)(F)F"
parameter_measured = "LC50"
number = 15.9


----------
Recorded inhibition of growth at 10 µM for the following molecules
- Test system: A498
- method.summary: Growth inhibition of human A498 cells at 10^-5 M incubated for 48 hrs by sulforhodamine B assay relative to control
- Assay type: functional
- assay.context: A498, 48 h, read-out: GI
parameter.measured: inhibition of growth at 10 µM (%)

[[record]]
smiles_repr = "O=C(CN1CCN(c2cc3c(cc2F)c(=O)c(C(=O)O)cn3C2CC2)CC1)N/N=C/c1ccc(Cl)cc1"
comparison_sign = "="
number = 26.7

[[record]]
smiles_repr = "O=C(CN1CCN(c2cc3c(cc2F)c(=O)c(C(=O)O)cn3C2CC2)CC1)N/N=C/c1cccs1"
comparison_sign = "="
number = 23.1

[[record]]
smiles_repr = "O=C(CN1CCN(c2cc3c(cc2F)c(=O)c(C(=O)O)cn3C2CC2)CC1)N/N=C/c1cc2ccccc2[nH]1"
comparison_sign = "<"
number = 20

[[record]]
smiles_repr = "NNC(=O)CN1CCN(c2cc3c(cc2F)c(=O)c(C(=O)O)cn3C2CC2)CC1"
comparison_sign = "<"
number = 20

[[record]]
smiles_repr = "O=C(CN1CCN(c2cc3c(cc2F)c(=O)c(C(=O)O)cn3C2CC2)CC1)N/N=C/c1c[nH]c2ccccc12"
comparison_sign = "<"
number = 20

[[record]]
smiles_repr = "COc1ccc(/C=N/NC(=O)CN2CCN(c3cc4c(cc3F)c(=O)c(C(=O)O)cn4C3CC3)CC2)cc1"
comparison_sign = "<"
number = 20

[[record]]
smiles_repr = "O=C(CN1CCN(c2cc3c(cc2F)c(=O)c(C(=O)O)cn3C2CC2)CC1)N/N=C/c1ccccc1C(F)(F)F"
comparison_sign = "="
number = 20.7


----------
- Tested on: K562
- method.summary: Growth inhibition of human K562 cells at 10^-5 M incubated for 48 hrs by sulforhodamine B assay relative to control
- Type: functional
- assay.context: K562, 48 h, read-out: GI
parameter.measured: inhibition of growth at 10 µM

[[record]]
smiles_repr = "O=C(CN1CCN(c2cc3c(cc2F)c(=O)c(C(=O)O)cn3C2CC2)CC1)N/N=C/c1cccs1"
result = "< 20%"

[[record]]
smiles_repr = "O=C(CN1CCN(c2cc3c(cc2F)c(=O)c(C(=O)O)cn3C2CC2)CC1)N/N=C/c1cc2ccccc2[nH]1"
result = "< 20%"

[[record]]
smiles_repr = "O=C(CN1CCN(c2cc3c(cc2F)c(=O)c(C(=O)O)cn3C2CC2)CC1)N/N=C/c1ccccc1C(F)(F)F"
result = "21.2%"


----------
- System: RPMI-8226
- method.summary: Growth inhibition of human RPMI8226 cells at 10^-5 M incubated for 48 hrs by sulforhodamine B assay relative to control
- Format: functional
- assay.context: RPMI-8226, 48 h, read-out: GI
Some compounds, each annotated with its measured inhibition of growth at 10 µM.
parameter.measured: inhibition of growth at 10 µM

[[record]]
smiles_repr = "O=C(CN1CCN(c2cc3c(cc2F)c(=O)c(C(=O)O)cn3C2CC2)CC1)N/N=C/c1c[nH]c2ccccc12"
tested_on = "RPMI-8226"
parameter_measured = "inhibition of growth at 10 µM"
result = "< 20%"

[[record]]
smiles_repr = "O=C(CN1CCN(c2cc3c(cc2F)c(=O)c(C(=O)O)cn3C2CC2)CC1)N/N=C/c1ccc(Cl)cc1"
tested_on = "RPMI-8226"
parameter_measured = "inhibition of growth at 10 µM"
result = "< 20%"

[[record]]
smiles_repr = "NNC(=O)CN1CCN(c2cc3c(cc2F)c(=O)c(C(=O)O)cn3C2CC2)CC1"
tested_on = "RPMI-8226"
parameter_measured = "inhibition of growth at 10 µM"
result = "< 20%"

